molecular target: Protein kinase C beta type (Homo sapiens, UniProt P05771); experiment: Displacement of [3H]- PDBu from recombinant PKC beta expressed in baculovirus
Sequence (P05771 whole entry): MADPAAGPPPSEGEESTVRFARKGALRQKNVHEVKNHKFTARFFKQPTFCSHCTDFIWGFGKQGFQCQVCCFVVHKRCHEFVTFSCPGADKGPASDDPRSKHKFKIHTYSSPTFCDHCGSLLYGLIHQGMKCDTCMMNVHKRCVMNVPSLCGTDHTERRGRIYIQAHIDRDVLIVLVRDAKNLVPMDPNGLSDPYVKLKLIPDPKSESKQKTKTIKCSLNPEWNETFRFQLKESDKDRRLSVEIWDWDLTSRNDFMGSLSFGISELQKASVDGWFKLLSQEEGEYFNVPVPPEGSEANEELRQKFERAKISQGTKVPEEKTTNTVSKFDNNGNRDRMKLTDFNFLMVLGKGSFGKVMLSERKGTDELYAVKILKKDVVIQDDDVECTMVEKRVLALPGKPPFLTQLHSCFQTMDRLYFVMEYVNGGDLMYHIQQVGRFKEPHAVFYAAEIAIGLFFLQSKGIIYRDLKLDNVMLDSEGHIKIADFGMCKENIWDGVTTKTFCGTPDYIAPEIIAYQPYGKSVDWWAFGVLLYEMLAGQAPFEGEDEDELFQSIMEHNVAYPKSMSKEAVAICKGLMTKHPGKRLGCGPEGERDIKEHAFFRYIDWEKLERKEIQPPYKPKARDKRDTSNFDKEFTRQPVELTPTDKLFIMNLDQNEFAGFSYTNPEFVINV
REPORTED ENDPOINT: pKi
# pKi: negative log10 of molar concentration; output just the value

Example cases with answers are listed next.
{"COMPOUND": "CC(C)[C@H]1C(=O)N[C@H](CO)Cc2c[nH]c3cccc(c23)N1C [INDOLACTUM]", "pKi": 8.21}
{"COMPOUND": "CCCCCCCCC#Cc1ccc2c(c1)C[C@@H](CO)NC(=O)[C@H](C(C)C)N2C", "pKi": 7.76}

// switching to the query compound
Task: State pKi on Protein kinase C beta type (Homo sapiens, UniProt P05771). Entry: CCCCCCCCc1ccc2c3c(c[nH]c13)C[C@@H](CO)NC(=O)[C@H](C(C)C)N2C
Output: 9.40

====

target: Protein kinase C delta type (Homo sapiens, UniProt Q05655); experiment: Inhibition of [3H]PDBu binding to PKC delta mutant Leu 20-Gly
Sequence (Q05655 whole entry, looked up): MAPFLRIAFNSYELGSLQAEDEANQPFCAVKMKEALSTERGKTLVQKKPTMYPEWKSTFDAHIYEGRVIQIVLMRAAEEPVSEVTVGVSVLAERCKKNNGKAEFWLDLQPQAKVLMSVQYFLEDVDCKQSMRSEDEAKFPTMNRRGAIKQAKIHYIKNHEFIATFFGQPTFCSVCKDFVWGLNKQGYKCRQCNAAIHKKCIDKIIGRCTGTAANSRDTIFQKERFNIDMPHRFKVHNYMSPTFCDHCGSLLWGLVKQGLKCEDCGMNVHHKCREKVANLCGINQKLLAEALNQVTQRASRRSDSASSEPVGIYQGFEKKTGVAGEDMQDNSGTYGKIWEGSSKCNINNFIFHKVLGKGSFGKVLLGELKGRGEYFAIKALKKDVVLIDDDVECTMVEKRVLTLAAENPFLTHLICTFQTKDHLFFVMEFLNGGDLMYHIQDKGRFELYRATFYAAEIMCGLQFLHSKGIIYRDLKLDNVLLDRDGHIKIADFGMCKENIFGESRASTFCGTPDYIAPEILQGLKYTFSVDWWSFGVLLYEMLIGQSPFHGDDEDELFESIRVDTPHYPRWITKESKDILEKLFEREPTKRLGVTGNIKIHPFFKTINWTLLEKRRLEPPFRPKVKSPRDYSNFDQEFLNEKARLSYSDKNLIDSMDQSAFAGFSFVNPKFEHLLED
REPORTED ENDPOINT: Ki (nM)
Report the value in nM with no unit label.

Task: Supply measured Ki of CCCCCCCCC#Cc1ccc2c(c1)C[C@@H](CO)NC(=O)[C@H](C(C)C)N2C in your reply.
Output: 134

====

Overview of reported Ki across a group of compounds:
target: Protein kinase C alpha type (Homo sapiens); test: Displacement of [3H]- PDBu from recombinant PKC alpha expressed in baculovirus
Kindly answer with a numeric value in µM, unit omitted.

Here are 3 compounds together with their reported answers.
{"LINE NOTATION": "CCCCCCCCC#Cc1ccc2c(c1)C[C@@H](CO)NC(=O)[C@H](C(C)C)N2C", "REPORTED ENDPOINT": "Ki", "RECORDED MEASUREMENT": 0.0147}
{"LINE NOTATION": "CC(C)[C@H]1C(=O)N[C@H](CO)Cc2ccccc2N1C", "REPORTED ENDPOINT": "Ki", "RECORDED MEASUREMENT": 0.334}
{"LINE NOTATION": "CCCCCCCCCCc1ccc2c(c1)C[C@@H](CO)NC(=O)[C@H](C(C)C)N2C", "REPORTED ENDPOINT": "Ki", "RECORDED MEASUREMENT": 0.0466}

Attention now turns to another entry.
Task: Return reported Ki for target or system Protein kinase C alpha type (Homo sapiens), item CCCCCCCCc1ccc2c3c(c[nH]c13)C[C@@H](CO)NC(=O)[C@H](C(C)C)N2C .
Output: 0.0005

====

target: Protein kinase C delta type (Homo sapiens); assay: Displacement of [3H]- PDBu from recombinant PKC delta expressed in baculovirus
Sequence (Q05655 whole entry): as the sequence (Q05655 whole entry, looked up) above
REPORTED ENDPOINT: pKi
Conceptually, pKi converts a concentration in mol/L into minus its log10.

Worked cases, answers included:
{"LINE NOTATION": "CCCCCCCCCCc1ccc2c(c1)C[C@@H](CO)NC(=O)[C@H](C(C)C)N2C", "TESTED ON": "Protein kinase C delta type (Homo sapiens)", "pKi": 6.85}
{"LINE NOTATION": "CCCCCCCCC#Cc1ccc2c(c1)C[C@@H](CO)NC(=O)[C@H](C(C)C)N2C", "TESTED ON": "Protein kinase C delta type (Homo sapiens)", "pKi": 6.91}
{"LINE NOTATION": "CCCCCCCCc1ccc2c3c(c[nH]c13)C[C@@H](CO)NC(=O)[C@H](C(C)C)N2C", "TESTED ON": "Protein kinase C delta type (Homo sapiens)", "pKi": 9.10}

Shifting focus to the compound that follows.
Task: Quick one: give measured pKi for CC(C)[C@H]1C(=O)N[C@H](CO)Cc2c[nH]c3cccc(c23)N1C
Output: 8.09

====

target: Protein kinase C epsilon type (Homo sapiens); assay: Displacement of [3H]- PDBu from recombinant PKC epsilon expressed in baculovirus
Sequence (Q02156 whole entry): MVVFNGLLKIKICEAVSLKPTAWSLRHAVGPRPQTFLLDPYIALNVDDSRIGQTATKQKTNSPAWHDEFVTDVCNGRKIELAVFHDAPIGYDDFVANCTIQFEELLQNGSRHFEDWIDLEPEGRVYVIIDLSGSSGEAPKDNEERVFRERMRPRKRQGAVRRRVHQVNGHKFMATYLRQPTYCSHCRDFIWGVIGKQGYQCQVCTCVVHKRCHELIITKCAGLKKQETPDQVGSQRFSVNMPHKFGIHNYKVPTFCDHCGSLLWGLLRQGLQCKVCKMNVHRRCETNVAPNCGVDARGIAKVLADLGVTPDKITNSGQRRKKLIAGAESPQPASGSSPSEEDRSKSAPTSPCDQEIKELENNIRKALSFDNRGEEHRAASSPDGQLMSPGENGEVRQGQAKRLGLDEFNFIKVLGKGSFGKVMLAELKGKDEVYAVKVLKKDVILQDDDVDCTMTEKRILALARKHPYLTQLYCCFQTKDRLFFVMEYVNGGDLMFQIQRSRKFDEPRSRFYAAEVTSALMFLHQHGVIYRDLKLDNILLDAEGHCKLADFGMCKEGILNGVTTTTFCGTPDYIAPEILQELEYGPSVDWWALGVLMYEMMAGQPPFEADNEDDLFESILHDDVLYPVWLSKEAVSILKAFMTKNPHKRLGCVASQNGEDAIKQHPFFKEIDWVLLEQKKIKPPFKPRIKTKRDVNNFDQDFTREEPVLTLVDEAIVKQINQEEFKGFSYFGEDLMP
REPORTED ENDPOINT: Ki (µM)
Give just the number in µM; leave the unit off.

Known results for compounds:
{"LINE NOTATION": "CC(C)[C@H]1C(=O)N[C@H](CO)Cc2c[nH]c3cccc(c23)N1C", "UNIT INFO": "µM", "Ki": 0.0219}
{"LINE NOTATION": "CCCCCCCCC#Cc1ccc2c(c1)C[C@@H](CO)NC(=O)[C@H](C(C)C)N2C", "UNIT INFO": "µM", "Ki": 0.142}
{"LINE NOTATION": "CCCCCCCCCCc1ccc2c(c1)C[C@@H](CO)NC(=O)[C@H](C(C)C)N2C", "UNIT INFO": "µM", "Ki": 0.187}

// moving on: another record for Ki
Task: Report Ki, nothing else, for this compound: CCCCCCCCc1ccc2c3c(c[nH]c13)C[C@@H](CO)NC(=O)[C@H](C(C)C)N2C
Output: 0.001

====

Recorded pKi values for a group of molecules are listed next.
biological target: Protein kinase C gamma type (Homo sapiens, UniProt P05129); experiment: Displacement of [3H]- PDBu from recombinant PKC gamma expressed in baculovirus
Expect pKi as a plain number equal to -log10 of the molar concentration.

Task: Return the recorded pKi value; entry: CCCCCCCCCCc1ccc2c(c1)C[C@@H](CO)NC(=O)[C@H](C(C)C)N2C
Output: 6.91

Task: Report pKi, nothing else, for this molecule: CCCCCCCCC#Cc1ccc2c(c1)C[C@@H](CO)NC(=O)[C@H](C(C)C)N2C
Output: 7.39

Task: Supply reported pKi belonging to this molecule: CC(C)[C@H]1C(=O)N[C@H](CO)Cc2c[nH]c3cccc(c23)N1C
Output: 7.71

Task: Specify measured pKi for CCCCCCCCc1ccc2c3c(c[nH]c13)C[C@@H](CO)NC(=O)[C@H](C(C)C)N2C .
Output: 8.92
